- Tested on: human colon crypts
- protocol description: Screening of reagents for optimization of human intestinal organoids culture (plating efficiency)
- Assay type: cell-based
- setup conditions: First screening (WENR)
readout: Activity (plating efficiency compared with control after 4 days culture)
Number only, please.

## Task Which Activity (plating efficiency compared with control after 4 days culture) value is on record for C[C@]12CCC(=O)C=C1CC[C@@H]1[C@@H]2[C@@H](O)C[C@@]2(C)[C@H]1CC[C@]2(O)C(=O)CO [Hydrocortison] ?
## Result 0

Please turn your attention to the following entry.
## Task Which Activity (plating efficiency compared with control after 4 days culture) value is on record for `O=C1O[C@H]([C@@H](O)CO)C(O)=C1O` ?
## Result 0
